tested on: cocklebur; assay: Test B pre/postemergence cocklebur; format: in vivo, Xanthium strumarium; conditions: Rate 62 g/ha, Postemergence; scale 0 to 10, 0 no effect, 10 complete control
endpointLabel: Cocklebur plant response rating
Number only, please.

// field: Cocklebur plant response rating; key: "Cc1ccccc1-n1c(=O)on(C(=O)N(c2ccncc2)C(C)C)c1=O" ; value = 0

Query "C=C(Cn1c(=O)on(C(=O)N(c2ccccc2)C(C)C)c1=O)c1cccnc1" yields Cocklebur plant response rating of 0

The recorded Cocklebur plant response rating for "CC(C)N(C(=O)n1oc(=O)n(CC2CCCC2)c1=O)c1ccc(F)cc1" is 0

Sample COC(C)n1c(=O)on(C(=O)N(c2ccc(F)cc2)C(C)C)c1=O (stereo not shown) ; Cocklebur plant response rating observed: 0

###

system: pigweed; experiment: Test B pre/postemergence pigweed; format: in vivo, Amaranthus retroflexus; settings: Rate 250 g/ha, Postemergence; scale 0 to 10, 0 is no effect, 10 is complete control
In plain terms, low Plant response rating, Redroot pigweed, meaning strictly below 4, gives 1 (yes), and everything else gives 0 (no).

Lab note: confirm whether the reported Plant response rating, Redroot pigweed for this compound is below 4, equality not counting. compound: "CC(C)N(C(=O)n1oc(=O)n(-c2nc(Cl)sc2Cl)c1=O)c1ccc(F)cc1"
1 (yes)

Problem: For the compound "CC(C)N(C(=O)n1oc(=O)n(-c2cnn(C)c2)c1=O)c1ccc(F)cc1" , is Plant response rating, Redroot pigweed under 4?
1 (yes)

Lab log: compare recorded Plant response rating, Redroot pigweed with 4; is it strictly lower for "CCn1c(=O)on(C(=O)N(c2ccc(F)cc2)C(C)C)c1=O" ?
0 (no)

Dear colleague, could you confirm whether Plant response rating, Redroot pigweed of "CC(C)N(C(=O)n1oc(=O)n(-c2cnn(C)c2Cl)c1=O)c1ccccc1" falls below 4? Thanks.
1 (yes)

Does this compound meet the criterion Plant response rating, Redroot pigweed < 4? "Cc1ccccc1Cn1c(=O)on(C(=O)N(c2ccc(Cl)cc2)C(C)C)c1=O"
0 (no)

###

Could you please report measured Plant response rating, Crabgrass for the items listed next?
Test system: crabgrass
Assay: Test B pre/postemergence crabgrass
Assay type: in vivo, Digitaria sanguinalis
Conditions: Preemergence, Rate 500 g/ha; scale of 0 to 10 where 0 is no effect and 10 is complete control
Procedure: […] At the same time, these crop and weed species were also treated with postemergence applications of test chemicals formulated in the same manner. […] Treated plants and controls were maintained in a greenhouse for twelve to sixteen days, after which all species were compared to controls and visually evaluated. […]
Write the number on its own, no unit after it.

Tested system crabgrass; Plant response rating, Crabgrass recorded for CC(=O)N(C)CCn1c(=O)on(C(=O)N(c2ccc(F)cc2)C(C)C)c1=O [Compound 625] was 10

Known value: crabgrass Plant response rating, Crabgrass of the compound CCCCCn1c(=O)on(C(=O)N(c2ccc(F)cc2F)C(C)C)c1=O [Compound 636] equals 10

Case CC[C@@H](C)n1c(=O)on(C(=O)N(c2ccc(F)cc2F)C(C)C)c1=O [Compound 667] , crabgrass, Plant response rating, Crabgrass recorded as 10

Record Cc1ccccc1-n1c(=O)on(C(=O)N(c2ccc(S(C)(=O)=O)cc2)C(C)C)c1=O [Compound 203] ; system crabgrass; Plant response rating, Crabgrass = 0

The observed Plant response rating, Crabgrass for C=C(Cn1c(=O)on(C(=O)N(c2ccccc2)C(C)C)c1=O)C(C)(C)C [Compound 648] when tested with crabgrass stands at 9

// Plant response rating, Crabgrass (crabgrass) for CC(C)N(C(=O)n1oc(=O)n(CCCC#N)c1=O)c1ccccc1 [Compound 674] = 9

Case Cc1cc(C)c(-n2c(=O)on(C(=O)N(c3ccc(F)cc3)C(C)C)c2=O)c(Br)c1 [Compound 224] , crabgrass, Plant response rating, Crabgrass recorded as 10

Log: crabgrass, compound Cc1ccccc1-n1c(=O)on(C(=O)N(c2ccccc2F)C(C)C)c1=O [Compound 204] , Plant response rating, Crabgrass = 8

Entry CC[C@@H](C)n1c(=O)on(C(=O)N(c2ccc(Cl)cc2)C(C)C)c1=O [Compound 665] under crabgrass had Plant response rating, Crabgrass of 10

###

tested on: wheat; assay: Test B pre/postemergence wheat; assay type: in vivo, Triticum aestivum; settings: Preemergence, Rate 500 g/ha; scale of 0 to 10 where 0 is no effect and 10 is complete control
endpointLabel: Plant response rating, Wheat
Answer with the value's number alone.

// Plant response rating, Wheat value for "Cc1cc(C)c(-n2c(=O)on(C(=O)N(c3ccc(F)cc3)C(C)C)c2=O)c(Br)c1" : 0

The compound "Cc1ccccc1-n1c(=O)on(C(=O)N(c2cccc(F)c2)C(C)C)c1=O" showed Plant response rating, Wheat equal to 0

Note to self: Plant response rating, Wheat recorded for "CC(C)N(C(=O)n1oc(=O)n(C2CCCC2)c1=O)c1ccc(Cl)cc1" was 0

The compound listed as "CC(=O)NCn1c(=O)on(C(=O)N(c2ccc(F)cc2F)C(C)C)c1=O" has a reported Plant response rating, Wheat of 0

// recorded Plant response rating, Wheat for "CC(C)N(C(=O)n1oc(=O)n(CC(=O)C2CCC2)c1=O)c1ccc(Cl)cc1" : 0

###

tested on: soybean; test: Test B pre/postemergence soybean; type: in vivo, Glycine max; settings: Rate 62 g/ha, Postemergence; scale of 0 to 10 where 0 is no effect and 10 is complete control
endpointLabel: Soybean plant response rating
Simply state the number, no unit and no words.

Measured Soybean plant response rating of CCOC(=O)C(C)N(C(=O)n1oc(=O)n(-c2c(C)cccc2C)c1=O)c1ccc(F)cc1 (centres unmarked) : 0

Entry CC(C)N(C(=O)n1oc(=O)n([C@@H]2C[C@H]2C)c1=O)c1ccc(F)cc1 (relative stereo) ; Soybean plant response rating = 1

// field: Soybean plant response rating; key: CCC(C)N(C(=O)n1oc(=O)n(-c2ccccc2C)c1=O)c1ccc(F)cc1 (centres unmarked) ; value = 1

"CC(C)N(C(=O)n1oc(=O)n(-c2cnn(C)c2Cl)c1=O)c1ccccc1" has a reported Soybean plant response rating of 3

The molecule listed as "Cc1ccccc1Cn1c(=O)on(C(=O)N(c2ccc(Cl)cc2)C(C)C)c1=O" has a reported Soybean plant response rating of 3

For "CC(C)N(C(=O)n1oc(=O)n(CCCC(F)(F)F)c1=O)c1ccc(F)cc1" the molecule record lists Soybean plant response rating as 3

So, CC(C)N(C(=O)n1oc(=O)n(C(C)c2ccccc2)c1=O)c1ccc(F)cc1 (centres unmarked) ? Its Soybean plant response rating was 1

Short answer for "CC(C)N(C(=O)n1oc(=O)n(C2(C)CC2)c1=O)c1ccccc1" : Soybean plant response rating was 1

# Soybean plant response rating of "CC(C)N(C(=O)n1oc(=O)n(C2CCC2)c1=O)c1ccc(F)cc1" = 1

In plain terms, "CCOC(=O)Cn1c(=O)on(C(=O)N(c2ccc(F)cc2)C(C)C)c1=O" has a documented Soybean plant response rating of 0

# molecule "Cc1ccccc1-n1c(=O)on(C(=O)N(c2ccccc2F)C(C)C)c1=O" ; its Soybean plant response rating = 1

###

Test system: sugar beet
Experiment: Test B pre/postemergence sugar beet
Format: in vivo, Beta vulgaris
Conditions: Preemergence, Rate 62 g/ha; scale 0 to 10 (0 no effect, 10 complete control)
Protocol: […] At the same time, these crop and weed species were also treated with postemergence applications of test chemicals formulated in the same manner. […] Treated plants and controls were maintained in a greenhouse for twelve to sixteen days, after which all species were compared to controls and visually evaluated. […]
For each of the molecules below, state its Plant response rating, Sugarbeets.
Give the figure by itself; no unit, no explanation.

For "CC(C)N(C(=O)n1oc(=O)n(C2CCCCCC2)c1=O)c1ccccc1" the molecule record lists Plant response rating, Sugarbeets as 0

# molecule "CC(C)N(C(=O)n1oc(=O)n(CC2=NOCCC2)c1=O)c1ccccc1" ; its Plant response rating, Sugarbeets = 0

# Plant response rating, Sugarbeets (molecule: "CC(C)N(C(=O)n1oc(=O)n(CCCC(F)(F)F)c1=O)c1ccc(F)cc1" ) is 0

###

Exercise: for every item that follows, state its recorded Wild oats plant response rating.
test system: wild oat; test: Test B pre/postemergence wild oat; assay type: in vivo, Avena fatua; details: Preemergence, Rate 62 g/ha; scale 0 to 10 (0 no effect, 10 complete control)
Simply state the number, no unit and no words.

The value of Wild oats plant response rating measured for the molecule C=C(C)Cn1c(=O)on(C(=O)N(c2ccc(F)cc2)C(C)C)c1=O [Compound 139] turned out to be 3

The value of Wild oats plant response rating measured for the molecule CC(Cl)=CCn1c(=O)on(C(=O)N(c2ccc(Cl)cc2)C(C)C)c1=O [Compound 544] turned out to be 0

Record CC(C)N(C(=O)n1oc(=O)n(-c2cnn(C)c2)c1=O)c1ccc(F)cc1 [Compound 98] . Reported Wild oats plant response rating: 0

// Cc1noc(C)c1Cn1c(=O)on(C(=O)N(c2ccc(Cl)cc2)C(C)C)c1=O [Compound 540] : Wild oats plant response rating value = 0
